method-summary: chemical genetic growth profiling, strain panel (AID 1159580);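 further: tested at 20 µM; growth read once vehicle control cultures reached saturation at 30 °C; 1 = growth at the plate median or of vehicle wells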
run-conditions: S. cerevisiae deletion strains, growth OD, locus YNL298W, strain CLA4, stronger effect = lower value
The campaign covered roughly 5,500 compounds. About 2,000 (36%) were called active. Roughly 18% stayed inconclusive and do not appear here. Some of the results follow.

{"compound": "CC1(C)C(=O)C=CC2(C)C3CCC4(C)C(c5ccoc5)CC5OC54C3C(O)CC12 (centres undefined)", "normalized growth": "1.03 (inactive)"}
{"compound": "O=C1C=CC2=C3c4cc(O)c(O)cc4C[C@@]3(O)COC2=C1", "normalized growth": "0.996 (inactive)"}
{"compound": "CC(Cc1ccc(O)c(O)c1)C(C)Cc1ccc(O)c(O)c1 (centres undefined)", "normalized growth": "0.981 (inactive)"}
{"compound": "C=C(CC)C(=O)c1ccc(OCC(=O)O)c(Cl)c1Cl", "normalized growth": "0.912 (inactive)"}
{"compound": "CC(=O)O[C@@H]1C[C@@]2(C)[C@H](c3ccoc3)C[C@H]3O[C@]32[C@]2(C)C(=O)C(O)=C3C(C)(C)C(=O)C=C[C@]3(C)C12 (some centres undefined)", "normalized growth": "0.953 (inactive)"}
{"compound": "N[C@@H](Cc1ccc(O)c(O)c1)C(=O)O", "normalized growth": "0.995 (inactive)"}
{"compound": "CC(=O)OC1CC(OC(C)=O)C2(C)C(CC(OC(C)=O)C3(C)C2CCC2(C)C(c4ccoc4)CC4OC423)C1(C)C (centres undefined)", "normalized growth": "1.02 (inactive)"}
{"compound": "C[C@H](N)[C@H](O)c1ccc(O)c(O)c1", "normalized growth": "0.966 (inactive)"}
{"compound": "CC1(C)CC2C1(O)CCC1(C)C=CC(O)C21CO (centres undefined)", "normalized growth": "0.977 (inactive)"}
{"compound": "COc1ccccc1OCCNCC(O)COc1cccc2[nH]c3ccccc3c12 (centres undefined)", "normalized growth": "1.03 (inactive)"}
{"compound": "O=C(O)CF", "normalized growth": "0.94 (inactive)"}
{"compound": "CC1(C)C(O)CC(O)C2(C)C1CC(O)C1(C)C2CCC2(C)C(c3ccoc3)CC3OC321 (centres undefined)", "normalized growth": "1.01 (inactive)"}
{"compound": "O=c1[nH]c(=O)n(C2C[C@@H](O)[C@@H](CO)O2)cc1F (some centres undefined)", "normalized growth": "0.996 (inactive)"}
{"compound": "NCC(O)c1ccc(O)cc1 (centres undefined)", "normalized growth": "0.966 (inactive)"}

###

Overview of recorded normalized growth for various compounds
method-summary: chemical genetic growth profiling, strain panel (AID 1159580)
run-conditions: S. cerevisiae deletion strains, growth OD, locus YDR052C, strain DBF4, stronger effect = lower value
The whole screen tested about 5,500 compounds, of which about 2,000 (36%) were called active. Roughly 18% stayed inconclusive and do not appear here. This is one part of the list.
readout-label: normalized growth

{"compound": "OC(CNCc1ccc(Cl)cc1)CO/N=C\\C1=C(Cl)c2cc(Cl)ccc2OC1 (stereo not drawn)", "readout-label": "normalized growth", "observed-result": 0.989}
{"compound": "NC(=Nc1ccc(F)cc1)SCc1c(Cl)cccc1Cl", "readout-label": "normalized growth", "observed-result": 0.992}
{"compound": "Fc1cccc(F)c1NC(=S)Nc1cc(C(F)(F)F)cc(C(F)(F)F)c1", "readout-label": "normalized growth", "observed-result": 0.987}

###

method-summary: chemical genetic growth profiling, strain panel (AID 1159580);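 further: tested at 20 µM; growth read once vehicle control cultures reached saturation at 30 °C; 1 = growth at the plate median or of vehicle wells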
run-conditions: S. cerevisiae deletion strains, growth OD, locus YLR418C, strain cdc73, stronger effect = lower value
In all, about 5,500 compounds went through this assay and about 2,000 (36%) were called active. Roughly 18% stayed inconclusive and do not appear here. This is one part of the list.
readout-label: normalized growth

{"molecule": "C=C(C)[C@H]1CC=C(C(=O)O)CC1", "readout-label": "normalized growth", "observed-result": 0.982}
{"molecule": "CC1(C)CC2C1(O)CCC1(C)C=CC(O)C21CO (stereo not drawn)", "readout-label": "normalized growth", "observed-result": 1.06}
{"molecule": "C=CC(C1=CC(=O)C(OC)=CC1=O)c1ccc(O)cc1 (stereo not drawn)", "readout-label": "normalized growth", "observed-result": 0.933}

###

method-summary: chemical genetic growth profiling, strain panel (AID 1159580);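 further: tested at 20 µM; growth read once vehicle control cultures reached saturation at 30 °C; 1 = growth at the plate median or of vehicle wells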
run-conditions: S. cerevisiae deletion strains, growth OD, locus YLR342W, strain FKS1 (second series), stronger effect = lower value
Hit rate of the full screen: of about 5,500 compounds, about 2,000 (36%) were called active. Not shown: some 18% with an inconclusive outcome. This is one part of the list.

{"compound": "CC1(C)C(=O)C=C[C@@]2(C)C1=C(O)C(=O)[C@]1(C)C2CC[C@@]2(C)[C@H](c3ccoc3)C[C@H]3O[C@]321 (stereo partly specified)", "normalized growth": 0.578}
{"compound": "CCC(Cc1c(I)cc(I)c(N)c1I)C(=O)O (stereo unspecified)", "normalized growth": 1}
{"compound": "Nc1ncn([C@@H]2O[C@H](CO)[C@@H](O)[C@H]2O)c(=O)n1", "normalized growth": 1}
{"compound": "CC1(C)C(C(Cl)Cl)C2(Cl)C(Cl)C(Cl)C1(Cl)C2(Cl)Cl (stereo unspecified)", "normalized growth": 0.913}
{"compound": "C=CC(C)(O)CC/C=C(\\C)CCC=C(C)C (stereo unspecified)", "normalized growth": 0.878}
{"compound": "CN1C(CC(=O)c2ccccc2)CCCC1CC(O)c1ccccc1 (stereo unspecified)", "normalized growth": 1.03}
{"compound": "Oc1ccc(Cl)c2cccnc12", "normalized growth": 0.0673}
{"compound": "CC1(C)C(O)CC(O)C2(C)C1CC(=O)C1(C)C2CCC2(C)C(C(=O)O)OC(=O)C3OC321 (stereo unspecified)", "normalized growth": 1}
{"compound": "Nc1ncnc2c1ncn2C1C[C@H](O)[C@@H](CO)O1 (stereo partly specified)", "normalized growth": 1.02}
{"compound": "O=C(O)CCC(=O)C(=O)O", "normalized growth": 1.01}
{"compound": "C=C(C)[C@H]1CC=C(C(=O)O)CC1", "normalized growth": 0.852}
{"compound": "O=C(OC1Cc2c(O)cc(O)cc2OC1c1cc(O)c(O)c(O)c1-c1c(C2Oc3cc(O)cc(O)c3CC2OC(=O)c2cc(O)c(O)c(O)c2)cc(O)c(O)c1O)c1cc(O)c(O)c(O)c1 (stereo unspecified)", "normalized growth": 1.1}
{"compound": "Nc1ccc(S(=O)(=O)Nc2ccc(Cl)nn2)cc1", "normalized growth": 1.05}
{"compound": "Oc1c(Cl)cc(Cl)c2cccnc12", "normalized growth": 0.0706}
{"compound": "COC(=O)Oc1ccccc1C(=O)O", "normalized growth": 0.995}
{"compound": "C=C[C@](C)(O)CCC=C(C)C", "normalized growth": 1.05}
{"compound": "CC(C)=CCC[C@](C)(O)C1CC=C(C)CC1 (stereo partly specified)", "normalized growth": 0.995}
{"compound": "COC(C)(C)CCC[C@H](C)C/C=C/C(C)=C/C(=O)OC(C)C", "normalized growth": 1.02}
{"compound": "C[C@H](N)[C@H](O)c1ccc(O)c(O)c1", "normalized growth": 0.968}
{"compound": "CO[C@H]1/C=C/O[C@@]2(C)Oc3c(C)c(O)c4c(O)c(c(/C=N/N5CCN(C)CC5)c(O)c4c3C2=O)NC(=O)/C(C)=C\\C=C\\C(C)[C@H](O)[C@@H](C)[C@@H](O)[C@@H](C)[C@@H](OC(C)=O)[C@@H]1C (stereo partly specified)", "normalized growth": 0.98}
{"compound": "CCN(CC)CCNC(=O)c1cc(S(C)(=O)=O)ccc1OC", "normalized growth": 1.02}

###

method-summary: chemical genetic growth profiling, strain panel (AID 1159580);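 further: tested at 20 µM; growth read once vehicle control cultures reached saturation at 30 °C; 1 = growth at the plate median or of vehicle wells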
run-conditions: S. cerevisiae deletion strains, growth OD, locus YHR079C, strain IRE1, stronger effect = lower value
About 2,000 (36%) of roughly 5,500 compounds were called active. About 18% were inconclusive and are not listed. Some of the results follow.
Cut-off 1 on normalized growth: below means yes, at or above means no.

{"compound": "COc1c2c(cc3c1OCO3)CCN(C)C2", "discrete-label": "no"}
{"compound": "Cc1cccc(Cl)c1/C=N\\NC(N)=S", "discrete-label": "yes"}
{"compound": "NCCCC[C@H](N[C@@H](CCc1ccccc1)C(=O)O)C(=O)N1CCC[C@H]1C(=O)O", "discrete-label": "no"}
{"compound": "CN[C@H](CC(=O)O)C(=O)O", "discrete-label": "no"}
{"compound": "O=c1[nH]c(=O)n(C2C[C@@H](O)[C@@H](CO)O2)cc1F (stereo partly drawn)", "discrete-label": "yes"}
{"compound": "O=C(Nc1ccc(N2CCOCC2)cc1)c1ccc(-n2cccn2)cc1", "discrete-label": "no"}
{"compound": "N#CC(C#N)=C/C=C(/Sc1nc2ccccc2s1)c1ccc(Br)cc1", "discrete-label": "yes"}
{"compound": "CCCc1c(C(=O)NNc2cccc(Cl)c2)cnn1-c1ccccc1", "discrete-label": "yes"}
{"compound": "O=C(Nc1ccc(C(F)(F)F)cc1)N1CCN(c2ccnc3cc(Cl)ccc23)CC1", "discrete-label": "no"}
{"compound": "C=CC(C1=CC(=O)C(OC)=CC1=O)c1ccccc1 (stereo not drawn)", "discrete-label": "yes"}
{"compound": "OC(CNCc1ccc(Cl)cc1)CO/N=C\\C1=C(Cl)c2cc(Cl)ccc2OC1 (stereo not drawn)", "discrete-label": "yes"}
{"compound": "CC(C)=CCC/C(C)=C/CC/C(C)=C/CO", "discrete-label": "yes"}
{"compound": "O=C(NC(=O)c1c(F)cccc1Cl)OCc1ccc(Cl)cc1Cl", "discrete-label": "yes"}
{"compound": "CC(=O)O[C@@H]1CC2C(C)(C)C(=O)CC[C@]2(C)C2CC[C@]3(C)C(=CC(=O)O[C@H]3c3ccoc3)[C@@]21C (stereo partly drawn)", "discrete-label": "no"}
{"compound": "O=[N+]([O-])c1cc(Br)cnc1Sc1nnc(SCC2CC2)s1", "discrete-label": "yes"}
{"compound": "O=S(=O)(N/N=C\\c1ccc(Cl)cc1)c1ccc(-c2ccccn2)s1", "discrete-label": "no"}
{"compound": "Fc1cccc(F)c1NC(=S)Nc1cc(C(F)(F)F)cc(C(F)(F)F)c1", "discrete-label": "yes"}
{"compound": "CCCCCCCCCCCCCCCC(=O)OCC(O)[C@H]1OC(=O)C(O)=C1O (stereo partly drawn)", "discrete-label": "yes"}
{"compound": "Oc1c(Cl)cc(Cl)c2cccnc12", "discrete-label": "yes"}
{"compound": "NC(=Nc1ccc(F)cc1)SCc1c(Cl)cccc1Cl", "discrete-label": "yes"}
{"compound": "CC(=O)O[C@@H]1C[C@@]2(C)[C@H](c3ccoc3)C[C@H]3O[C@]32[C@]2(C)C(=O)C(O)=C3C(C)(C)C(=O)C=C[C@]3(C)C12 (stereo partly drawn)", "discrete-label": "yes"}
{"compound": "Cc1occc(=O)c1O", "discrete-label": "no"}
{"compound": "CCCc1c(C(=O)Sc2ccccn2)cnn1-c1ccc(Cl)cc1", "discrete-label": "yes"}
{"compound": "N[C@@H](Cc1ccc(O)c(O)c1)C(=O)O", "discrete-label": "yes"}
{"compound": "Oc1c(Br)cc(Br)c2cccnc12", "discrete-label": "yes"}
{"compound": "C=CC(C1=CC(=O)C(OC)=CC1=O)c1ccc(OC)cc1 (stereo not drawn)", "discrete-label": "no"}
